system: Herpes simplex virus type 1 (HSV-1); test: Antiviral activity against HSV-1, viral plaque reduction (ED50); type: cell-based; settings: HSV-1 76, HEP-2, 50 PFU
ENDPOINT_LABEL: EC50 (µM)
Form entry: value (µM) — number only.

The compound `COCc1cn([C@H]2C[C@H](O)[C@@H](CO)O2)c(=O)nc1N` showed EC50 equal to 22

###

test: Inhibition of proliferation (MTC), MOLT/4F cells; assay type: cell-based; conditions: human, highest concentration tested
ENDPOINT_LABEL: MCC

The compound `COCc1cn([C@H]2C[C@H](O)[C@@H](CO)O2)c(=O)nc1N` showed MCC equal to > 400 µg/mL

// provenance: patent US4990499A
